These measurements were taken from patent US11753446B2.

System: human red blood cells (hRBC)
Assay: Hemolysis: hemolytic activity at 100 μg/mL, 1 h at 37° C.
Details: red cells of human, 1 h, 100
Where a SMILES comes first, the peptide text is derived from it. Bridges are numbered along the chain shown (N, C = ends). [ ]: non-standard residue; d: D form. dPen = CC(C)(S)[C@@H](N)C(=O)O; Chg = N[C@H](C(=O)O)C1CCCCC1; Tle = CC(C)(C)[C@H](N)C(=O)O; dDab = NCC[C@@H](N)C(=O)O; Orn = NCCC[C@H](N)C(=O)O; Dab = NCC[C@H](N)C(=O)O; Dap = NC[C@H](N)C(=O)O
readout_label: Hemolysis at 100 μg/mL (%)
Form entry: value (%) — number only.

For orientation, consider the following solved cases.
CC(C)C[C@@H]1NC(=O)[C@@H]2CCCN2C(=O)[C@H]2CCCN2C(=O)[C@H](CO)NC(=O)[C@@H]2NC(=O)[C@H](C3CCCCC3)NC(=O)[C@H](CCN)NC(=O)[C@H](Cc3c[nH]c4ccccc34)NC(=O)[C@H](CCN)NC(=O)[C@@H](CCN)NC(=O)[C@H](CCCN)NC(=O)[C@H](CCN)NC(=O)[C@H](C(C)(C)C)NC(=O)[C@H](NC1=O)C(C)(C)SSC2(C)C [Example 33] (cyclo(L[dPen][Tle][Dab][Orn][dDab][Dab]W[Dab][Chg][dPen]S[dP]P); disulfide 2-11)    1
CC(C)[C@@H]1NC(=O)[C@@H]2CCCN2C(=O)[C@@H]([C@H](C)O)NC(=O)[C@H]([C@@H](C)O)NC(=O)[C@@H]2CC(=O)NCC[C@H](NC1=O)C(=O)N[C@@H](Cc1ccc(O)cc1)C(=O)N[C@@H](CCN)C(=O)N[C@@H](CN)C(=O)N[C@H](CCN)C(=O)N[C@@H](CCN)C(=O)N[C@@H](Cc1c[nH]c3ccccc13)C(=O)N[C@@H](CCN)C(=O)N[C@@H](C(C)(C)C)C(=O)N2 [Example 29] (cyclo(V[Dab]Y[Dab][Dap][dDab][Dab]W[Dab][Tle]DT[dT]P); lactam 2-11)    2

Now for the compound whose Hemolysis at 100 μg/mL we want.
## Input Provide Hemolysis at 100 μg/mL, tested on human red blood cells (hRBC), for CC(C)C[C@@H]1NC(=O)[C@H](CCCNC(=N)N)NC(=O)[C@@H](CCN)NC(=O)[C@H]([C@@H](C)O)NC(=O)[C@@H]2CCNC(=O)C[C@H](NC1=O)C(=O)N[C@@H](Cc1ccc(O)cc1)C(=O)N[C@@H](CC(N)=O)C(=O)N[C@@H](CCCN)C(=O)N[C@H](CCN)C(=O)N[C@@H](CCN)C(=O)N[C@@H](Cc1c[nH]c3ccccc13)C(=O)N[C@@H](CO)C(=O)N[C@@H](C(C)(C)C)C(=O)N2 [Example 75] (cyclo(LDYN[Orn][dDab][Dab]WS[Tle][Dab]T[dDab]R); lactam 2-11) .
## Output 1
